# Tested on: SARS-CoV-2 Omicron variant BA.1
# Assay type: cell-based
# ASSAY_CONDITIONS: read-out: EC50 against SARS-CoV-2 Omicron variant BA.1
MEASURED_ATTRIBUTE: EC50

Input CC(C)OC(=O)[C@H](C)N[P@](=O)(OC[C@H]1O[C@@](C#N)(c2ccc3c(N)ncnn23)[C@H](O)[C@@H]1O)Oc1ccccc1 . Output EC50: 540 nM

This collection of values is drawn from paper PMC11246197.
